Below, each entry is listed with its recorded GI50.
test system: A549 NSCLC; assay: NCI tumour cell line growth inhibition, 48 h

molecule: CCOc1ccc(Nc2ccnc3cc(Cl)ccc23)cc1
experimental.value: > 100 µM
//
molecule: COc1cc(/C=C2\C[C@H]3[C@@H]4CC=C5C[C@@H](O)CC[C@]5(C)[C@H]4CC[C@]3(C)[C@H]2O)ccc1OCCN1CCCCC1
experimental.value: 0.815 µM
//
molecule: O=C1/C(=C/c2ccc(Cl)cc2)N=C(c2ccccc2)N1c1cc(C(F)(F)F)ccc1Cl
experimental.value: 24.2 µM
//
molecule: FC(F)(F)c1cccc(Oc2ccc(Nc3ncnc4ccc(OCCCN5CCOCC5)cc34)cc2Cl)c1
experimental.value: 1.88 µM
//
molecule: C#Cc1cccc(Nc2nc(C)nc3cc(NC(=O)CCl)ccc23)c1
experimental.value: 4.68 µM
//
molecule: COc1cc(-c2n/c(=C\c3c(O)[nH]c4ccccc34)cc3c2=Nc2ccccc2-3)ccc1F
experimental.value: 7.06 µM

Query block: GET /values?readout=GI50&item= C[N+]1(CCNP(=S)(NCC[N+]2(C)Cc3c(ccc4c3OCO4)C3C2c2cc4c(cc2C[C@@H]3O)OCO4)NCC[N+]2(C)Cc3c(ccc4c3OCO4)C3C2c2cc4c(cc2C[C@@H]3O)OCO4)Cc2c(ccc3c2OCO3)C2C1c1cc3c(cc1C[C@H]2O)OCO3 (stereo partly specified)
Result block: 2.89 µM

Query block: Give the measured GI50 of CO[C@H]1/C=C/O[C@@]2(C)Oc3c(C)c(O)c4c(O)c(c(/C=N/N5C(C)CN(Cc6ccc(C#N)cc6)CC5C)c(O)c4c3C2=O)NC(=O)/C(C)=C\C=C\[C@H](C)[C@H](O)[C@@H](C)[C@@H](O)[C@@H](C)[C@H](OC(C)=O)[C@@H]1C (stereo partly specified) .
Result block: 6.81 µM

Query block: // lookup GI50 for "N#Cc1ccc2[nH]cc(Cc3c[nH]c4ccc(C#N)cc34)c2c1"
Result block: 9.73 µM

Query block: // GI50 lookup, key: "COC(=O)[C@@H](C)C[C@H](Cc1ccc(F)cc1)NC(=O)c1csc([C@@H](C[C@H](C(C)C)N(C)C(=O)[C@@H](NC(=O)[C@H]2CCCCN2C)C2CC2)OC(C)=O)n1"
Result block: 0.959 µM

Query block: So what's the measured GI50 for this one? "[Mn+3].[O-][Cl+3]([O-])([O-])O.[O-]c1ccccc1C=NCCN1CC1.[O-]c1ccccc1C=NCCN1CC1"
Result block: 38.6 µM

Data provenance is PubChem BioAssay (NCI).
